System: HeLa cells
measurement_notes: Kinetic imaging of NBD-triazine probe uptake and sequestration, fitted to nested two-compartment transport model
Type: cell-based
study_conditions: median over optimal solutions within 5% of the best fit
Reported median Pap(cyto) (apparent partition coefficient between extracellular medium and cytosol) values for a set of compounds
Answer as a number with no unit attached.

1) COc1ccc(CCNc2nc(NCCCCCCNc3ccc([N+](=O)[O-])c4nonc34)nc(NCCC(C)C)n2)cc1: 236.99
2) COc1ccc(CNc2nc(NCCCCCCNc3ccc([N+](=O)[O-])c4nonc34)nc(NCCc3ccccn3)n2)cc1: 12.33
3) COc1cccc(CNc2nc(NCCCCCCNc3ccc([N+](=O)[O-])c4nonc34)nc(NCC3CCCCC3)n2)c1OC: 8.77
4) Cc1ccc(CNc2nc(NCCCCCCNc3ccc([N+](=O)[O-])c4nonc34)nc(NC3CCC(C)CC3)n2)cc1 (centres unmarked): 23.97
5) COc1ccc(CCNc2nc(NCCCCCCNc3ccc([N+](=O)[O-])c4nonc34)nc(NC3CCC(C)CC3)n2)cc1 (centres unmarked): 99.03
6) CCCCCCCCNc1nc(NCCCCCCNc2ccc([N+](=O)[O-])c3nonc23)nc(NCc2cccc(F)c2)n1: 4.14
7) CC(C)CCNc1nc(NCCCCCCNc2ccc([N+](=O)[O-])c3nonc23)nc(NCc2cccc(F)c2)n1: 12.09

Moving on to another compound below.
Which measured median Pap(cyto) (apparent partition coefficient between extracellular medium and cytosol) belongs to CC1CCCCC1Nc1nc(NCCCCCCNc2ccc([N+](=O)[O-])c3nonc23)nc(NCc2cccc(F)c2)n1 (centres unmarked) , tested on HeLa cells? 5.98

Data credit: patent US20070111251A1
